molecular target: Amine oxidase [flavin-containing] B (Homo sapiens, UniProt P27338); test: Inhibition of recombinant human MAOB using kynuramine as substrate measured for 30 mins by fluorescence spectrophotometric assay
Sequence (P27338 whole entry): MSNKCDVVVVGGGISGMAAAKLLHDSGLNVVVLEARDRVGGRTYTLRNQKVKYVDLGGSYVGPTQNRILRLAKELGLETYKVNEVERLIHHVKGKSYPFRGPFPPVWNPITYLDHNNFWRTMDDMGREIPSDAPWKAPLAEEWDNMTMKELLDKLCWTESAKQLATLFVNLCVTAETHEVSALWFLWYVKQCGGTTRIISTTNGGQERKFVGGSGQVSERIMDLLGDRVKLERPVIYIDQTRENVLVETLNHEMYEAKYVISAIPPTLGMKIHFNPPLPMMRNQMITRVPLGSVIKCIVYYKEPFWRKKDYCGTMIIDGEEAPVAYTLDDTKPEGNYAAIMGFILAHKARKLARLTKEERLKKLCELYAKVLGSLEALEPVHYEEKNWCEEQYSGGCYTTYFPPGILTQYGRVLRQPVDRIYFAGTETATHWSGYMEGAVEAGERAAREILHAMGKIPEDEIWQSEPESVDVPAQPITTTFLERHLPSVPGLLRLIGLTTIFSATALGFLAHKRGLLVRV
pIC50: −log10 of the molar value.

>  <structure>
Cn1cc(C(=O)Nc2cccc(Cl)c2)c(=O)c2ccccc21

>  <target>
Amine oxidase [flavin-containing] B (Homo sapiens, UniProt P27338)

>  <pIC50>
4.54

$$$$
>  <structure>
O=C(Nc1ccc(Cl)c(Cl)c1)c1c[nH]c2ccccc2c1=O

>  <target>
Amine oxidase [flavin-containing] B (Homo sapiens, UniProt P27338)

>  <pIC50>
4.95

$$$$
>  <structure>
Cc1ccc(NC(=O)c2cn(C)c3ccccc3c2=O)cc1C

>  <target>
Amine oxidase [flavin-containing] B (Homo sapiens, UniProt P27338)

>  <pIC50>
4.08

$$$$
>  <structure>
Cn1cc(C(=O)Nc2ccc(Cl)c(Cl)c2)c(=O)c2ccccc21

>  <target>
Amine oxidase [flavin-containing] B (Homo sapiens, UniProt P27338)

>  <pIC50>
5.28

$$$$

---

target: Amine oxidase [flavin-containing] A (Homo sapiens); assay: Inhibition of recombinant human MAOA using kynuramine as substrate measured for 30 mins by fluorescence spectrophotometric assay
Sequence (P21397 whole entry): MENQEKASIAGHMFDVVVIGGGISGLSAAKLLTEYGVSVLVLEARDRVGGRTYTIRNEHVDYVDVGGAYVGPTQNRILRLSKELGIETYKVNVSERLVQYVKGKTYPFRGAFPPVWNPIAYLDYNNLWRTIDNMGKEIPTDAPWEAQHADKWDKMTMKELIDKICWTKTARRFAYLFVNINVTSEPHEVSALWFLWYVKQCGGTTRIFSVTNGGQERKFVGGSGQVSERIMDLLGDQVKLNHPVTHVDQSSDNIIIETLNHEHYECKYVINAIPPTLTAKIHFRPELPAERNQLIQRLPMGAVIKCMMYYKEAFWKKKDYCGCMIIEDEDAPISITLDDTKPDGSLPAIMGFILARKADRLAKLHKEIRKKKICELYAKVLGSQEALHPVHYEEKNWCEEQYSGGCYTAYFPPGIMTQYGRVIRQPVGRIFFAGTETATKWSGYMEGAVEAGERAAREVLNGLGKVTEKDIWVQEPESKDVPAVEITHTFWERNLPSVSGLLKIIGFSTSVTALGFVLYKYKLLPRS
pIC50: −log10 of the molar value.

>  <structure>
O=C(Nc1ccc(Cl)c(Cl)c1)c1c[nH]c2ccccc2c1=O

>  <target>
Amine oxidase [flavin-containing] A (Homo sapiens)

>  <pIC50>
2.76

$$$$
>  <structure>
Cc1ccc(NC(=O)c2cn(C)c3ccccc3c2=O)cc1C

>  <target>
Amine oxidase [flavin-containing] A (Homo sapiens)

>  <pIC50>
2.94

$$$$
>  <structure>
Cn1cc(C(=O)Nc2cccc(Cl)c2)c(=O)c2ccccc21

>  <target>
Amine oxidase [flavin-containing] A (Homo sapiens)

>  <pIC50>
2.13

$$$$

---

Item-by-item account of Ratio IC50
species on record: Homo sapiens; test: Selectivity index, ratio of IC50 for inhibition of human MAOA to IC50 for inhibition of human MAOB

>  <structure>
Cn1cc(C(=O)Nc2ccc(Cl)c(Cl)c2)c(=O)c2ccccc21

>  <result-comparator>
>

>  <Ratio IC50>
1890

$$$$
>  <structure>
Cn1cc(C(=O)Nc2cccc(Cl)c2)c(=O)c2ccccc21

>  <result-comparator>
=

>  <Ratio IC50>
258

$$$$
>  <structure>
Cc1ccc(NC(=O)c2cn(C)c3ccccc3c2=O)cc1C

>  <result-comparator>
=

>  <Ratio IC50>
19.6

$$$$
>  <structure>
O=C(Nc1ccc(Cl)c(Cl)c1)c1c[nH]c2ccccc2c1=O

>  <result-comparator>
=

>  <Ratio IC50>
157

$$$$
